- settings: Liquid; Ebulliometric method (Recirculating still)
outcome-measure: Normal boiling temperature (°C)

compound="C[S+](C)[O-] [dimethyl sulfoxide]" outcome_measure="Normal boiling temperature" unit_annotation=°C value_observed=190.02
compound="CC(=O)N(C)C [N,N-dimethylethanamide]" outcome_measure="Normal boiling temperature" unit_annotation=°C value_observed=165.80
compound="CCC(C)OC(C)=O (centres undefined) [1-methylpropyl ethanoate]" outcome_measure="Normal boiling temperature" unit_annotation=°C value_observed=112.18
compound="CCC(C)O (centres undefined) [butan-2-ol]" outcome_measure="Normal boiling temperature" unit_annotation=°C value_observed=99.48
